IC50 reference
- tested.target: human MCH-1R (Homo sapiens, UniProt Q99705)
- Construct: expressed in transfected cells; host or cells: CHO-K1 (American Type Culture Collection), plasmid vector pEF/myc/cyto
- Sequence (Q99705 whole entry): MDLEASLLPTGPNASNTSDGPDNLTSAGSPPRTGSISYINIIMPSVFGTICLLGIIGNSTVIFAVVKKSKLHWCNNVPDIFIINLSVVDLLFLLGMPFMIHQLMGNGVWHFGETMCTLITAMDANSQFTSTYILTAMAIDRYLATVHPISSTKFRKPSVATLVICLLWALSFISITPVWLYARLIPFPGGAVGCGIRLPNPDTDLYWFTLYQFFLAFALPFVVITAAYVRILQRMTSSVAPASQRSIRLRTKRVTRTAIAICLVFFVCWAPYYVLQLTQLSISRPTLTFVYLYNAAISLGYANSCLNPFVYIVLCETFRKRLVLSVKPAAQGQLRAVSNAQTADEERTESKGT
- assay.text: MCH binding inhibition test
- assay.context: membrane samples from MCH-1R expressing CHO-K1 cells, 50 pM [125I]MCH, 25° C., one hour; read-out: IC50 (nM); 50% inhibition concentration (IC50 value) for specific [125I]MCH binding
recorded.endpoint: IC50 (nM)

compound="O=C1C(F)CCN1C(c1ccc(CN2CCC3(CC2)OCc2ccncc23)cc1)c1ccc(F)c(F)c1 (single isomer, unassigned) [Example 2-5]" tested_target="human MCH-1R (Homo sapiens, UniProt Q99705)" recorded_endpoint=IC50 observed_value=0.18
compound="CN(C(=O)C(C)(C)O)C(c1ccc(F)c(F)c1)c1ccc(CN2CCC(c3ccc(F)nc3)CC2)cn1 (single isomer, unassigned) [Example 1-37]" tested_target="human MCH-1R (Homo sapiens, UniProt Q99705)" recorded_endpoint=IC50 observed_value=17
compound="O=C1CCCN1C(c1ccc(CN2CCC3(CC2)OCc2ccncc23)cc1)c1ccc(F)c(F)c1 (centres unmarked) [Example 2-1]" tested_target="human MCH-1R (Homo sapiens, UniProt Q99705)" recorded_endpoint=IC50 observed_value=0.26
compound="CC(NC(=O)C(F)F)(c1ccc(F)c(F)c1)c1ccc(CN2CCC(c3ccc(F)nc3)CC2)cn1 (single isomer, unassigned) [Example 1-58]" tested_target="human MCH-1R (Homo sapiens, UniProt Q99705)" recorded_endpoint=IC50 observed_value=1.7
compound="Cn1cc2c(cc1=O)C1(CCN(Cc3ccc(C(c4ccc(F)c(F)c4)N4CCCS4(=O)=O)cc3)CC1)OC2 (centres unmarked) [Example 1-20]" tested_target="human MCH-1R (Homo sapiens, UniProt Q99705)" recorded_endpoint=IC50 observed_value=2.9
